Data origin: patent US12507703B2

Tested on: lipase
test.details: Lipase/lipolysis assay (EnzChek Lipase Substrate, quenched BODIPY-fatty acid conjugate) on stored human milk; note: test concentration or dose not given here
Item-by-item account of Lipase (RFU)
quantity.measured: Lipase (RFU)

>>> value_reported("COc1c(CC=C(C)C)c(O)cc2oc(=O)c3c4ccc(O)cc4oc3c12")
923.0229
>>> value_reported("OC[C@H]1O[C@H](OC[C@H]2O[C@H](OC[C@H]3O[C@H](O[C@]4(CO)O[C@H](CO)[C@@H](O)[C@@H]4O)[C@H](O)[C@@H](O)[C@@H]3O)[C@H](O)[C@@H](O)[C@H]2O)[C@H](O)[C@@H](O)[C@H]1O")
882.4617
>>> value_reported("O=c1cc(-c2ccc(O)cc2)oc2c([C@@H]3O[C@H](CO)[C@@H](O)[C@H](O)[C@H]3O)c(O)c([C@@H]3O[C@H](CO)[C@@H](O)[C@H](O)[C@H]3O)c(O)c12")
893.9745
